- assay.method.text: Metabolic stability in liver microsomes (intrinsic clearance)
- Type: in vitro ADME
- condition.details: mouse, microsomes, pH 7.4, Metabolic Stability Half life (mouse, min.)
// boundary case: half-life at 1 µM equal to 2 h maps to FALSE; strictly smaller maps to TRUE

# example entries with known answers
- CCc1nc2ncc(C)cn2c1C(=O)NCc1ccc(-c2nc3n(n2)CCC(OC)C3)cc1 (stereo not drawn) [Compound 26ab]: FALSE
- CCc1nc2nc(C)c(C)cn2c1C(=O)NCc1ccc(-c2nc3n(n2)CCC(C(F)(F)F)C3)cc1 (stereo not drawn): TRUE
- CCc1nc2ncc(C)cn2c1C(=O)NCc1ccc(-c2cn3c(n2)CC(C)CC3)cc1 (stereo not drawn): FALSE
- CCc1cnc2nc(CC)c(C(=O)NCc3ccc(-c4cn5c(n4)C[C@@H](C(F)(F)F)CC5)cc3)n2c1: TRUE
- CCc1nc2ncc(C)cn2c1C(=O)NCc1ccc(-c2nc3n(n2)CCC(C(F)F)C3)cc1 (stereo not drawn) [Compound 25ab]: FALSE

**Q:** Does this compound meet the criterion half-life at 1 µM < 2 h? `CCc1nc2ncccn2c1C(=O)NCc1ccc(-c2nc3n(n2)CC[C@H](C2CC2)C3)cc1`
**A:** FALSE

**Q:** Does this compound meet the criterion half-life at 1 µM < 2 h? CCc1nc2ncc(C)cn2c1C(=O)NCc1ccc(-c2nc3n(n2)CCC(O)C3)cc1 (stereo not drawn) [Compound 29ab]
**A:** FALSE

**Q:** Does this compound meet the criterion half-life at 1 µM < 2 h? CCc1nc2ncc(C)cn2c1C(=O)NCc1ccc(-c2nc3n(n2)CCC(C(F)(F)F)C3)c(C)c1 (stereo not drawn) [Compound 23ab]
**A:** TRUE

**Q:** Does this compound meet the criterion half-life at 1 µM < 2 h? CCc1nc2nc(C)ccn2c1C(=O)NCc1ccc(-c2nc3n(n2)CCC(C(F)(F)F)C3)cc1 (stereo not drawn) [Compound 5ab]
**A:** FALSE

---

- assay.method.text: HTChem stab assay (chemical stability in buffer pH2, pH4 and pH7 vs DMSO reference)
- Type: physicochemical
- condition.details: 72 h, 50 µM, pH 2
- Experimental: HTChem stab assay was used to assess the chemical stability of the compounds. 72 h stirring at rt in a buffer pH2, pH4 and pH7 vs a reference DMSO solution. HTChem stab assay is based on the handbook of Pharmaceutical Stress Testing, Predicting Drug Degradation, second edition, authors Baertschi, Alsante, Reed ISBN 978-143980179-6. […] After 72 h shaking (300 rpm) at room temperature the samples were analysed by LC/UV/MS. […]
measurement.type: Chemical stability data, Buffer pH2 (%)
Numbers only, in %.

Some entries whose results are on file:
- CCc1nc2ncc(Cl)cn2c1C(=O)NCc1ccc(-c2nc3n(n2)CCC(C(F)(F)F)C3)cc1 (single isomer, unassigned) [Compound 10b]: 81
- CCc1nc2ncc(C)cn2c1C(=O)NCc1ccc(-c2nc3n(n2)CCC(C2CC2)C3)cc1 (centres unmarked) [Compound 27ab]: 100
- CCc1nc2ncc(OC)cn2c1C(=O)NCc1ccc(-c2nc3n(n2)CCC(C(F)(F)F)C3)cc1 (centres unmarked) [Compound 6ab]: 100
- CCc1nc2ncc(C)cn2c1C(=O)NCc1ccc(-c2nc3n(n2)CC(C(F)(F)F)CC3)cc1 (centres unmarked) [Compound 24ab]: 100
- CCc1nc2ncc(C)cn2c1C(=O)NCc1ccc(-c2nc3n(n2)CCC(C(F)(F)F)C3)c(C)c1 (centres unmarked) [Compound 23ab]: 100

// for each molecule below, give its Chemical stability data, Buffer pH2
1. CCc1nc2ncc(C)cn2c1C(=O)NCc1ccc(-c2nc3n(n2)CCC(C(F)(F)F)C3)cc1 (centres unmarked) [Compound 1ab]
2. CCc1nc2ncc(C)cn2c1C(=O)NCc1ccc(-c2nc3n(n2)CCCC3)cc1 [Compound 31ab]

**A:**
[100, 100]

// for each molecule below, give its Chemical stability data, Buffer pH2
1. CCc1nc2ncc(C)cn2c1C(=O)NCc1ccc(-c2cn3c(n2)CC(C(F)(F)F)CC3)cc1 (single isomer, unassigned) [Compound 3a]
2. CCc1nc2ncc(C)cn2c1C(=O)NCc1ccc(-c2nc3n(n2)CCC(O)C3)cc1 (centres unmarked) [Compound 29ab]
3. CCc1nc2ncc(C)cn2c1C(=O)NCc1ccc(-c2nc3n(n2)CCC(C(F)(F)F)C3)cc1 (single isomer, unassigned) [Compound 1a]
4. CCc1nc2nc(C)ccn2c1C(=O)NCc1ccc(-c2nc3n(n2)CCC(C(F)(F)F)C3)cc1 (centres unmarked) [Compound 5ab]

**A:**
1. 100
2. 100
3. 100
4. 95

// for each molecule below, give its Chemical stability data, Buffer pH2
1. CCc1nc2ncc(C)cn2c1C(=O)NCc1ccc(-c2nc3n(n2)CCC(C(F)F)C3)cc1 (centres unmarked) [Compound 25ab]
2. CCc1nc2ncc(Cl)cn2c1C(=O)NCc1ccc(-c2nc3n(n2)CCC(C(F)(F)F)C3)cc1 (centres unmarked) [Compound 10ab]

**A:**
100
72

**Q:** Sample CCc1nc2nc(C)ccn2c1C(=O)NCc1ccc(-c2nc3n(n2)CCC(C(F)(F)F)C3)cc1 (single isomer, unassigned) [Compound 5a] — what was its Chemical stability data, Buffer pH2?
**A:** 100

---

Kindly state log10 of half-life at 1 µM for each of the entries shown.
- assay.method.text: Metabolic stability in liver microsomes (intrinsic clearance)
- Assay type: in vitro ADME
- condition.details: human, microsomes, pH 7.4, Metabolic Stability Half life (human, min.)
- Procedure: The test compound was incubated under the generic condition (0.5 mg/ml microsomal protein, 1 mM NADPH, 1 mM MgCl2, and 0.1 M phosphate buffer, pH 7.4, 37° C.) at a defined substrate concentration (typically 1 μM) in liver microsomes of selected species across a time course (typically 0, 5, 10, 20, 40 and 60 minutes) at Cyprotex (Cheshire, UK). The liver microsomes, buffer and test compound will be pre-incubated for 5 minutes. […]
# values: log10(half-life at 1 µM), units min

Some entries whose results are on file:
• CCc1cnc2nc(CC)c(C(=O)NCc3ccc(-c4nc5n(n4)CC[C@@H](C(F)(F)F)C5)cc3)n2c1 [Compound 59] = 0.60
• CCc1cnc2nc(CC)c(C(=O)NCc3ccc(-c4nc5n(n4)CC[C@H](C(F)(F)F)C5)cc3)n2c1 [Compound 62] = 0.67
• CCc1nc2ncc(C)cn2c1C(=O)NCc1ccc(-c2cc3n(n2)CCC(C(F)(F)F)C3)cc1 (centres unmarked) [Compound 20ab] = 1.58
• CCc1nc2ncc(C)cn2c1C(=O)NCc1ccc(-c2cn3c(n2)CC(C(F)(F)F)CC3)cc1 (centres unmarked) [Compound 3ab] = 1.97

Now consider a different compound.
**Q:** Sample CCc1cnc2nc(CC)c(C(=O)NCc3ccc(-c4cn5c(n4)C[C@H](C(F)(F)F)CC5)cc3)n2c1 [Compound 151] — what was its log10 of half-life at 1 µM?
**A:** 0.63

---

- System: Mycobacterium tuberculosis strain H37Rv
- assay.method.text: Test 2: MIC determination against M. tuberculosis, resazurin fluorescence
- Assay type: cell-based
- condition.details: Test 2, M. tuberculosis H37Rv
measurement.type: Bacterial activity pMIC50
One number for each entry.

Some entries whose results are on file:
- CCc1nc2ncc(C)cn2c1C(=O)NCc1ccc(-c2cn3c(n2)CC(C(F)(F)F)CC3)cc1 (single isomer, unassigned) [Compound 3b]: 8.483
- CCc1nc2ncccn2c1C(=O)NCc1ccc(-c2nc3n(n2)CC[C@@H](C(F)(F)F)C3)c(F)c1 (single isomer, unassigned) [Compound 73]: 7.18

Now consider a different compound.
**Q:** Sample CCc1nc2ncc(C)cn2c1C(=O)NCc1ccc(-c2nc3n(n2)CC[C@H](C(C)(F)F)C3)cc1 (single isomer, unassigned) [Compound 105] — what was its Bacterial activity pMIC50?
**A:** 8.24

---

- assay.method.text: Metabolic stability in liver microsomes (intrinsic clearance)
- Type: in vitro ADME
- condition.details: mouse, microsomes, pH 7.4, mouse liver microsomes; read-out: Metabolic Stability (liver microsome intrinsic clearance) Clearance (mouse, μl/min./mg protein)
measurement.type: log10 microsomal CLint at 1 µM (log10 of the value in µL/min/mg)
# values: log10(microsomal CLint at 1 µM), units µL/min/mg

Some entries whose results are on file:
- CCc1nc2ncc(C)cn2c1C(=O)NCc1ccc(-c2nc3n(n2)CCC(C(C)(F)F)C3)c(F)c1 (stereo not drawn) [Compound 106]: 1.08
- O=C(NCc1ccc(-c2nc3n(n2)CC[C@H](C(F)(F)F)C3)cc1)c1c(C(F)F)nc2n1CCCC2 [Compound 174]: 1.24
- CCc1cnc2nc(CC)c(C(=O)NCc3ccc(-c4cn5c(n4)C[C@@H](C(F)(F)F)CC5)cc3)n2c1 [Compound 152]: 2.11
- CCc1nc2ncc(C)cn2c1C(=O)NCc1ccc(-c2cc3n(n2)CCCC3)cc1 [Compound 95]: -1.92
- CCc1nc2ncc(C)cn2c1C(=O)NCc1ccc(-c2nc3n(n2)CCC(C(F)F)C3)cc1 (stereo not drawn) [Compound 25ab]: 1.00
- CCc1nc2ncc(C)cn2c1C(=O)NCc1ccc(-c2nc3n(n2)CCC(OCCOC)C3)cc1 (stereo not drawn) [Compound 30ab]: 0.96

// for each molecule below, give its log10 microsomal CLint at 1 µM
1. CCc1cnc2nc(CC)c(C(=O)NCc3ccc(-c4nc5n(n4)CC[C@@H](C(F)(F)F)C5)cc3)n2c1 [Compound 59]
2. CCc1nc2ncc(OC)cn2c1C(=O)NCc1ccc(-c2nc3n(n2)CCC(C(F)(F)F)C3)cc1 (stereo not drawn) [Compound 6ab]
3. CCc1cnc2nc(CC)c(C(=O)NCc3ccc(-c4nc5n(n4)CC[C@H](C(F)(F)F)C5)cc3)n2c1 [Compound 62]
4. CCc1nc2ncc(C)cn2c1C(=O)NCc1ccc(-c2nc3n(n2)CCC(C)C3)cc1 (stereo not drawn) [Compound 4ab]

**A:**
1. 1.77
2. 1.15
3. 1.76
4. 0.92
